measurement-type: melting point

[[record]]
molecule = "NS(=O)(=O)c1ccc(-c2cc(-c3nc(-c4ccc(Cl)cc4)cc(C(F)(F)F)n3)ccn2)s1"
measurement_type = "melting point"
result = "290 °C"

[[record]]
molecule = "CC(C)C/C(=C\\F)CN1C(=O)c2ccccc2C1=O"
measurement_type = "melting point"
result = "57 to 60 °C"

[[record]]
molecule = "Oc1c(C(=S)NCc2ccc(Cl)cc2)cnc2ccc(I)cc12"
measurement_type = "melting point"
result = "275 to 276 °C"

[[record]]
molecule = "O=C1N[C@@H](Cc2ccccc2)C(=O)N/C1=C\\c1ccccc1"
measurement_type = "melting point"
result = "275 to 276 °C"

[[record]]
molecule = "N#Cc1ncn2c(C(F)(F)F)cc(-c3ccccc3)nc12"
measurement_type = "melting point"
result = "202 °C"

[[record]]
molecule = "NS(=O)(=O)c1cc2ncccc2o1"
measurement_type = "melting point"
result = "219 to 221 °C"

[[record]]
molecule = "C1=CN(Cc2ccccc2)CCC1c1cc2ccccc2o1 (stereo not given)"
measurement_type = "melting point"
result = "139 to 140 °C"

[[record]]
molecule = "COC(=O)c1ccc(NCC=Cc2ccccc2)cn1"
measurement_type = "melting point"
result = "131 to 133 °C"

[[record]]
molecule = "CCc1cc2c(OC)ccc(C)c2nc1Cl"
measurement_type = "melting point"
result = "101 to 102 °C"

[[record]]
molecule = "CCOC(=O)c1nc(NCC(c2ccccc2)c2ccccc2)c2ncn([C@@H]3O[C@H](CO)[C@@H](O)[C@H]3O)c2n1"
measurement_type = "melting point"
result = "118 to 120 °C"


====

Catalogue of melting point readings, one per entry.
measurement-type: melting point

[[record]]
compound = "COC(=O)CCSc1scnc1C(=O)O"
result = "112 to 116 °C"

[[record]]
compound = "Cc1cc(C(=S)CBr)ccc1O"
result = "118 to 120 °C"

[[record]]
compound = "CCCC(C)(CCl)c1cc(Cl)nnc1Cl (stereo not drawn)"
result = "68 to 69 °C"

[[record]]
compound = "Cc1nc2c(c(-c3ccccc3)n1)CCN(c1ccnc([C@@H](C)O)n1)C2"
result = "114 to 116 °C"

[[record]]
compound = "C[C@](N)(CO)CCc1ccc2oc(-c3ccc(O)cc3)nc2c1"
result = "229 to 231 °C"

[[record]]
compound = "O=C1CCC=C1c1ccc(Cl)cc1"
result = "71 to 72 °C"

[[record]]
compound = "CCN(CC)CCNC(=O)c1cccc2c(=O)c(C)c(-c3cccc(Cl)c3)oc12"
result = "116 to 117 °C"

[[record]]
compound = "CCCOc1cc(C)cnc1CCCCNc1ncc(Cc2ccc(C)nc2)c(=O)[nH]1"
result = "81 to 85 °C"

[[record]]
compound = "COc1ccccc1-c1ncc(-c2nnn[nH]2)c(=O)[nH]1"
result = "282 to 283 °C"

[[record]]
compound = "Nc1cc2c(Nc3ccc(F)c(Cl)c3)ncnc2cc1OCC1CCOCC1"
result = "221 °C"

[[record]]
compound = "CCCCOC(=O)C(OC(=O)C(C)C)OC(=O)N1CCN(c2cc3c(cc2F)c(=O)c(C(=O)O)cn3CC)CC1 (stereo not drawn)"
result = "152 to 160 °C"

[[record]]
compound = "Cc1cccc(C)c1NC(N)=NOC1CCCCO1 (stereo not drawn)"
result = "196 to 197 °C"

[[record]]
compound = "O=C(Cc1ccccc1Nc1c(Cl)cccc1Cl)OCCl"
result = "89 to 91 °C"

[[record]]
compound = "Cc1oc2cc(CO)ccc2c1C"
result = "78 to 79 °C"

[[record]]
compound = "CCCc1c(OCCCCCOc2ccc3c(c2CCC)OC(C(=O)OC)CC3)ccc(C(C)=O)c1O (stereo not drawn)"
result = "57 to 58 °C"

[[record]]
compound = "NC(=O)CNC(=O)c1cc(-c2cccc3cc(Cc4cc(F)cc(Cl)c4)sc23)ccn1"
result = "157 to 158 °C"

[[record]]
compound = "CC(=O)NC1CCc2c([nH]c3ccccc23)C1 (stereo not drawn)"
result = "203 to 206 °C"

[[record]]
compound = "CS(=O)(=O)OCCN1c2ccccc2Oc2ccccc21"
result = "81 to 83 °C"

[[record]]
compound = "O=C(OCc1ccccc1)C1=CCC2C(C(O)c3ccccc3)C(=O)N12 (stereo not drawn)"
result = "124 °C"

[[record]]
compound = "C[Si](C)(C)CC(CN)CC(=O)O (stereo not drawn)"
result = "167 to 168 °C"

[[record]]
compound = "O=C1C2=C(CCCC2)C(=O)N1c1ccc(Cl)cc1F"
result = "81 to 82 °C"

[[record]]
compound = "CC(C)(O)CCn1c2ccccc2c2cc(NC(=O)c3ccccc3Cl)ccc21"
result = "120 to 124 °C"

[[record]]
compound = "C#Cc1ncn2c1[C@@H]1CCCN1C(=O)c1c(Cl)cccc1-2"
result = "324 to 325 °C"

